Numbers sourced from patent US12624034B2.

# targetOrSystem: AKT2 (Homo sapiens)
# Construct: expressed in transfected cells; host or cells: HEK293
# assayDetails: Live cell AKT2 target engagement by NanoBRET competitive probe displacement in HEK293 cells
# Type: binding
# testParameters: NanoBRET competitive probe displacement, live HEK293 cells, 2 h at 37° C.; read-out: AKT2 IC50
# pIC50 per record follows
# reply with the number alone; pIC50 is -log10 of concentration in mol/L

Please review the entries below; each comes with its answer.
1) COc1ccn(-c2ccc3nc(-c4cccnc4N)n(-c4ccc5c(c4)CC[C@@H]5NC4CN(C(=O)C5CC5)C4)c3n2)n1 [Compound 484] | 5.41
2) Nc1ncccc1-c1nc2ccc(-n3cccn3)nc2n1-c1ccc2c(c1)CC[C@@H]2NC1CC2(CCN(c3ccccn3)C2)C1 (stereo partly shown) [Compound 447] | 5.83
3) COc1cc2c(cn1)CCC2N[C@H]1CCc2cc(-n3c(-c4cccnc4N)nc4ccc(-n5cccn5)nc43)ccc21 (stereo partly shown) [Compound 511] | 6.71
4) Nc1ncccc1-c1nc2ccc(-n3cccn3)nc2n1-c1ccc2c(c1)CC[C@@H]2NC1CCc2cnccc21 (single isomer, unassigned) [Compound 474] | 6.37
5) Nc1ncccc1-c1nc2ccc(-n3cccn3)nc2n1-c1ccc2c(c1)CC[C@@H]2NC1CC2(CCN(c3ccccn3)CC2)C1 [Compound 449] | 5.92
6) Nc1ncccc1-c1nc2ccc(-n3ccc(N4CCC4)n3)nc2n1-c1ccc2c(c1)CC[C@@H]2NC1CCN(C(=O)C2CC2)CC1 [Compound 562] | 6.37

Then this molecule:
Value lookup for pIC50; key = Cc1cnc(C#N)nc1N1CCC(N[C@H]2CCc3cc(-n4c(-c5cccnc5N)nc5ccc(-n6cccn6)nc54)ccc32)CC1 [Compound 585] 7.97

* * *

# pIC50 per record follows
# targetOrSystem: AKT1 WT (Homo sapiens)
# Construct: expressed in transfected cells; host or cells: HEK293
# assayDetails: Live cell AKT1 WT target engagement by NanoBRET competitive probe displacement in HEK293 cells
# Format: binding
# testParameters: NanoBRET competitive probe displacement, live HEK293 cells, 2 h at 37° C.; read-out: AKT1 WT IC50
# reply with the number alone; pIC50 is -log10 of concentration in mol/L

Please review the entries below; each comes with its answer.
1. Fc1ccccc1-c1nc2ccc(-n3cccn3)nc2n1-c1ccc2c(c1)CC[C@@H]2n1cnnc1 [Compound 529] | 8.09
2. COc1ccn(-c2ccc3nc(-c4cccnc4N)n(-c4ccc5c(c4)CC[C@@H]5NC4CCN(C(=O)C5CC5)CC4F)c3n2)n1 (single isomer, unassigned) [Compound 514] | 7.58
3. COCc1cc(C(=O)N[C@H]2CCc3cc(-n4c(-c5cccnc5N)nc5ccc(-n6cccn6)nc54)ccc32)ccc1O [Compound 410] | 8.13

Then this compound:
Value lookup for pIC50; key = Nc1ncccc1-c1nc2ccc(-n3ncc(OC(F)F)n3)nc2n1-c1ccc2c(c1)CC[C@@H]2NC(=O)c1cnc(C(F)F)s1 [Compound 595] 7.82

* * *

# targetOrSystem: AKT1 WT (Homo sapiens, UniProt P31749)
# Construct: expressed in transfected cells; host or cells: HEK293
# Sequence (P31749 whole entry): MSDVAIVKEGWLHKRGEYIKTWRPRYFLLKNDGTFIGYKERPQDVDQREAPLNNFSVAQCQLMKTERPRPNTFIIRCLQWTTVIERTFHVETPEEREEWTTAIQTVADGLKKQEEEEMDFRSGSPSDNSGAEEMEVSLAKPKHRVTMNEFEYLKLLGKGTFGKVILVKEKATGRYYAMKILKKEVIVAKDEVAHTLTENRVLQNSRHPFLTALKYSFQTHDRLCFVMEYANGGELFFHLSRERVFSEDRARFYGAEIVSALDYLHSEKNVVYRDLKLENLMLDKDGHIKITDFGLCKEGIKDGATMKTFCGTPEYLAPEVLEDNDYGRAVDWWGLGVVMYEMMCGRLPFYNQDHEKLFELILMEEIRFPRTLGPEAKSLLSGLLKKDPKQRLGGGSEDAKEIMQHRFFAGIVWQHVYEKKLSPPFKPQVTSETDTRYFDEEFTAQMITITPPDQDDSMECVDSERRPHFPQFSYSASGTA
# assayDetails: Live cell AKT1 WT target engagement by NanoBRET competitive probe displacement in HEK293 cells
# Assay type: binding
# testParameters: NanoBRET competitive probe displacement, live HEK293 cells, 2 h at 37° C.; read-out: AKT1 WT IC50
# pIC50 per record follows
# reply with the number alone; pIC50 is -log10 of concentration in mol/L

1. COc1ccn(-c2ccc3nc(-c4cccnc4N)n(-c4ccc5c(c4)CC[C@@H]5NC4CCN(C(=O)C5CC5)CC4F)c3n2)n1 (stereo partly drawn) [Compound 512] | 7.71

Then this molecule:
Value lookup for pIC50; key = Nc1ncccc1-c1nc2ccc(-n3cccn3)nc2n1-c1ccc2c(c1)CC[C@@H]2NC1CCN(c2cccnc2)C1 (stereo partly drawn) [Compound 472] 7.74

* * *

# targetOrSystem: AKT1 WT (Homo sapiens)
# Construct: expressed in transfected cells; host or cells: HEK293
# assayDetails: Live cell AKT1 WT target engagement by NanoBRET competitive probe displacement in HEK293 cells
# Assay type: binding
# testParameters: NanoBRET live cell target engagement, HEK293 cells, 2 h at 37° C.; read-out: AKT1 WT IC50
Lab note: compare IC50 with 30 nM, writing satisfied if less and not satisfied if equal or more.

1. COc1cccc(C(=O)N[C@H]2CCc3cc(-n4c(-c5cccnc5N)nc5ccc(-n6cccn6)nc54)ccc32)c1 | satisfied
2. Nc1ncccc1-c1nc2ccc(-n3cccn3)nc2n1-c1ccc2c(c1)CC[C@@H]2NC(=O)c1ccccc1 | satisfied
3. Cc1ccc(C(=O)N[C@H]2CCc3cc(-n4c(-c5cccnc5N)nc5ccc(-c6ncco6)nc54)ccc32)cn1 | not satisfied
4. Nc1ncccc1-c1nc2ccc(-n3nccn3)nc2n1-c1ccc2c(c1)CC(F)[C@@H]2NC(=O)c1ccc(C(F)F)nc1 (stereo partly drawn) [Compound 350] | satisfied
5. Cc1ncncc1C(=O)N[C@H]1CCc2cc(-n3c(-c4cccnc4N)nc4ccc(-n5cccn5)nc43)ccc21 | satisfied
6. COc1ncncc1C(=O)N[C@H]1CCc2cc(-n3c(-c4cccnc4N)nc4ccc(-n5cccn5)nc43)ccc21 | not satisfied
7. Nc1ncccc1-c1nc2ccc(-n3cccn3)nc2n1-c1ccc2c(c1)CC[C@@H]2n1cnnc1Cc1ccccc1 | satisfied
8. Nc1ncccc1-c1nc2ccc(-n3cccn3)nc2n1-c1ccc2c(c1)CC[C@@H]2NC(=O)c1ccnc2occc12 | satisfied
9. COc1ncccc1C(=O)N[C@H]1CCc2cc(-n3c(-c4cccnc4N)nc4ccc(-n5cccn5)nc43)ccc21 | not satisfied
10. CN1CCC(N[C@H]2CCc3cc(-n4c(-c5cccnc5N)nc5ccc(-n6cccn6)nc54)ccc32)CC1 | not satisfied

In plain terms, does `Nc1ncccc1-c1nc2ccc(-n3cccn3)nc2n1-c1ccc2c(c1)CC[C@@H]2n1cc(C2CNC2)nn1` come in under 30 nM for IC50? not satisfied

In plain terms, does `Cn1ccc(-c2cn([C@H]3CCc4cc(-n5c(-c6cccnc6N)nc6ccc(-n7cccn7)nc65)ccc43)nn2)n1` come in under 30 nM for IC50? satisfied

In plain terms, does `Nc1ncccc1-c1nc2ccc(-n3cccn3)nc2n1-c1ccc2c(c1)CC[C@@H]2NC(=O)c1cccnc1` come in under 30 nM for IC50? satisfied

In plain terms, does `Nc1ncccc1-c1nc2ccc(-n3cccn3)nc2n1-c1ccc2c(c1)CC[C@@H]2NC(=O)c1cncs1` come in under 30 nM for IC50? satisfied

In plain terms, does `Nc1ncccc1-c1nc2ccc(-n3cccn3)nc2n1-c1ccc2c(c1)CC[C@@H]2NC1COC1` come in under 30 nM for IC50? not satisfied

* * *

# targetOrSystem: AKT2 (Homo sapiens, UniProt P31751)
# Construct: expressed in transfected cells; host or cells: HEK293
# Sequence (P31751 whole entry): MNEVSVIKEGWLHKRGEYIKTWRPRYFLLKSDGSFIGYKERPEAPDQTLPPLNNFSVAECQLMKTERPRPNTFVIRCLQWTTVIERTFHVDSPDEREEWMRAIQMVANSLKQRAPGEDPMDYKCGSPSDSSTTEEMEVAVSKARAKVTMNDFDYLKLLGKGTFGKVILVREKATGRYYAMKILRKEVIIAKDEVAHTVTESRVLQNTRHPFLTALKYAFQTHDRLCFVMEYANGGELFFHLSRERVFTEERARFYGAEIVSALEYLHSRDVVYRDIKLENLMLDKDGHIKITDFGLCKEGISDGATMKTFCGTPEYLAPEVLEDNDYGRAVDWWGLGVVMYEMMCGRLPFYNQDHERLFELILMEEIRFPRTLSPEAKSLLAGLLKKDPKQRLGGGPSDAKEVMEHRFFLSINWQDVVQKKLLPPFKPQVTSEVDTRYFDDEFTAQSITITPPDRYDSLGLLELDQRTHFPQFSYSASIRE
# assayDetails: Live cell AKT2 target engagement by NanoBRET competitive probe displacement in HEK293 cells
# Format: binding
# testParameters: NanoBRET live cell target engagement, HEK293 cells, 2 h at 37° C.; read-out: AKT2 IC50
measuredProperty: IC50

1. Cc1ncccc1C(=O)N[C@H]1CCc2cc(-n3c(-c4cccnc4N)nc4ccc(C5CC5)nc43)ccc21 | > 10 µM
2. Nc1ncccc1-c1nc2ccc(-n3cccn3)nc2n1-c1ccc2c(c1)CC[C@H]2n1ccnn1 | > 10 µM
3. CC(C)(C)c1cn([C@H]2CCc3cc(-n4c(-c5cccnc5N)nc5ccc(-n6cccn6)nc54)ccc32)nn1 | 2.33 µM

Provide value of IC50 for this record tested with AKT2 (Homo sapiens, UniProt P31751): `Cc1cnc(C)c(C(=O)N[C@H]2CCc3cc(-n4c(-c5cccnc5N)nc5ccc(-n6cccn6)nc54)ccc32)n1` > 10 µM

* * *

# targetOrSystem: AKT1 WT (Homo sapiens)
# Construct: expressed in transfected cells; host or cells: HEK293
# assayDetails: Live cell AKT1 WT target engagement by NanoBRET competitive probe displacement in HEK293 cells
# Format: binding
# testParameters: NanoBRET competitive probe displacement, live HEK293 cells, 2 h at 37° C.; read-out: AKT1 WT IC50
pIC50: −log10 of the molar value.
Label Fulfilled when pIC50 >= 7; otherwise Not fulfilled.

Worked examples, 5 compounds total:
1. Cc1ccc(C(=O)N[C@H]2CCc3cc(-n4c(-c5ccccc5)nc5ccc(-c6ccn(C7CC7)n6)nc54)ccc32)cn1 | Fulfilled
2. CCC#Cc1ccc2nc(-c3cccnc3N)n(-c3ccc4c(c3)CC[C@@H]4NC(=O)c3ccc(C(F)F)nc3)c2n1 | Fulfilled
3. Nc1ncccc1-c1nc2ccc(-n3nccn3)nc2n1-c1ccc2c(c1)CC[C@@H]2NC(=O)c1cnns1 | Fulfilled
4. N#Cc1nccc(C(=O)N2CCC(N[C@H]3CCc4cc(-n5c(-c6cccnc6N)nc6ccc(-n7cccn7)nc65)ccc43)CC2)n1 | Fulfilled
5. Nc1ncccc1-c1nc2ccc(-n3cccn3)nc2n1-c1ccc2c(c1)CC[C@@H]2NC1CCc2cnccc21 (single isomer, unassigned) [Compound 474] | Fulfilled

Reported pIC50 reaches at least 7 for `Cn1ccc(=O)n1-c1ccn(-c2ccc3nc(-c4cccnc4N)n(-c4ccc5c(c4)CC[C@@H]5NC4CCN(C(=O)C5CC5)CC4)c3n2)n1` ? Not fulfilled

Reported pIC50 reaches at least 7 for Nc1ncccc1-c1nc2ccc(-n3cccn3)nc2n1-c1ccc2c(c1)CC[C@@H]2NC1CCc2ccncc21 (single isomer, unassigned) [Example 496] ? Fulfilled

Reported pIC50 reaches at least 7 for `COc1cnn(-c2ccc3nc(-c4cccnc4N)n(-c4ccc5c(c4)CC[C@@H]5NC4CCN(C(=O)C5CC5)CC4)c3n2)c1` ? Fulfilled
